Assay: clinical
Conditions: human, in vivo, po, Median t max (range)
measure: Tmax

The measured Tmax associated with `O=C1C[C@@H](c2ccc(O)cc2)Oc2cc(O)ccc21` reads > 3 h

====

Experiment: Randomized crossover quantitative trial: plasma pharmacokinetics of nine ingredients after rikkunshito 2.5, 5.0 or 7.5 g
Settings: human, in vivo, po, 7.5 g, Median t max (range), rikkunshito 7.5 g single oral, n = 19; median (minimum–maximum)
measure: Tmax

The measured Tmax associated with `C/C=C/C#CC#C/C=C/c1ccco1` reads ≤ 1 h

====

Experiment: Exploratory trial: plasma concentration of rikkunshito ingredients after single oral rikkunshito 7.5 g
Type: in vivo
Conditions: 8 h after single oral rikkunshito 7.5 g; mean ± S.D., n = 4
measure: Plasma concentration, 8 h

O=C(/C=C/c1ccc(O)cc1)c1ccc(O)cc1O [Isoliquiritigenin] = BQL
CC(C)=CCC[C@](C)(O[C@@H]1O[C@H](CO)[C@@H](O)[C@H](O)[C@H]1O)[C@H]1CC[C@]2(C)[C@@H]1[C@H](O)C[C@@H]1[C@@]3(C)CC[C@H](O[C@@H]4O[C@H](CO)[C@@H](O)[C@H](O)[C@H]4O[C@@H]4O[C@H](CO)[C@@H](O)[C@H](O)[C@H]4O)C(C)(C)[C@@H]3CC[C@]12C [Ginsenoside Rd] = BQL
O=C1C[C@@H](c2ccc(O[C@@H]3O[C@H](CO)[C@@H](O)[C@H](O)[C@H]3O)cc2)Oc2cc(O)ccc21 [Liquiritin] = BQL
C[C@@H]1O[C@@H](O[C@H]2[C@H](Oc3cc(O)c4c(c3)O[C@H](c3ccc(O)cc3)CC4=O)O[C@H](CO)[C@@H](O)[C@@H]2O)[C@H](O)[C@H](O)[C@H]1O [Naringin] = BQL

====

Experiment: Exploratory trial: plasma concentration of rikkunshito ingredients after single oral rikkunshito 7.5 g
Type: in vivo
Details: 2 h after single oral rikkunshito 7.5 g; mean ± S.D., n = 4
Procedure: A random sequence was generated using a computer. The safety endpoint was evaluated in all volunteers. […] For quantification of synephrine, 5 µL of standard solution or methanol was added to 100 µL plasma or urine samples followed by mixing. […] For quantification of 30 ingredients other than atractylodin and synephrine, 25 µL of standard solution or methanol was added to 500 µL plasma or urine samples followed by mixing. […]
measure: Plasma concentration, 2 h

CNCC(O)c1ccc(O)cc1 (stereo not drawn) [Synephrine] = BQL
CC(C)=CCC[C@](C)(O[C@@H]1O[C@H](CO)[C@@H](O)[C@H](O)[C@H]1O)[C@H]1CC[C@]2(C)[C@@H]1[C@H](O)C[C@@H]1[C@@]3(C)CC[C@H](O[C@@H]4O[C@H](CO)[C@@H](O)[C@H](O)[C@H]4O[C@@H]4O[C@H](CO)[C@@H](O)[C@H](O)[C@H]4O)C(C)(C)[C@@H]3CC[C@]12C [Ginsenoside Rd] = BQL
COc1ccc(-c2cc(=O)c3c(OC)c(OC)c(OC)c(OC)c3o2)cc1OC [Nobiletin] = 5.45 ± 10.9 pg/mL

====

Assay: Exploratory trial: plasma concentration of rikkunshito ingredients after single oral rikkunshito 7.5 g
Format: in vivo
Conditions: human, in vivo
Description: A random sequence was generated using a computer. The safety endpoint was evaluated in all volunteers. […] For quantification of synephrine, 5 µL of standard solution or methanol was added to 100 µL plasma or urine samples followed by mixing. […] For quantification of 30 ingredients other than atractylodin and synephrine, 25 µL of standard solution or methanol was added to 500 µL plasma or urine samples followed by mixing. […]
measure: Cmax
Kindly format the answer as number then unit.

The measured Cmax associated with `CC1(C)[C@@H](O)CC[C@]2(C)[C@H]3C(=O)C=C4[C@@H]5C[C@@](C)(C(=O)O)CC[C@]5(C)CC[C@@]4(C)[C@]3(C)CC[C@@H]12` reads 58.2 ng/mL

====

Experiment: Stability of ingredients in gastric pH solution (pH 1.2, 37°C)
Assay type: physicochemical
Conditions: 2 h, pH 1.2
measure: Stability in gastric pH solution, Quantitative value

Reference set (2 entries):
CC(C)=CCC[C@](C)(O[C@@H]1O[C@H](CO)[C@@H](O)[C@H](O)[C@H]1O)[C@H]1CC[C@]2(C)[C@@H]1[C@H](O)C[C@@H]1[C@@]3(C)CC[C@H](O)C(C)(C)[C@@H]3[C@@H](O[C@@H]3O[C@H](CO)[C@@H](O)[C@H](O)[C@H]3O[C@@H]3O[C@@H](C)[C@H](O)[C@@H](O)[C@H]3O)C[C@]12C [Ginsenoside Re] = 23.7 ng/mL
COc1ccc([C@@H]2CC(=O)c3c(O)cc(O)cc3O2)cc1O = 3.90 ng/mL

Go through the items and report each one's Stability in gastric pH solution, Quantitative value.
1. COc1ccc(-c2cc(=O)c3c(OC)c(OC)c(OC)c(OC)c3o2)cc1OC
2. CC(C)=CCC[C@](C)(O[C@@H]1O[C@H](CO[C@@H]2OC[C@H](O)[C@H](O)[C@H]2O)[C@@H](O)[C@H](O)[C@H]1O)[C@H]1CC[C@]2(C)[C@@H]1[C@H](O)C[C@@H]1[C@@]3(C)CC[C@H](O[C@@H]4O[C@H](CO)[C@@H](O)[C@H](O)[C@H]4O[C@@H]4O[C@H](CO)[C@@H](O)[C@H](O)[C@H]4O)C(C)(C)[C@@H]3CC[C@]12C [Ginsenoside Rb2]

Response:
["19.6 ng/mL", "77.3 ng/mL"]

====

Test: Exploratory trial: plasma concentration of rikkunshito ingredients after single oral rikkunshito 7.5 g
Format: in vivo
Conditions: in vivo, po
measure: Plasma concentration, 2 h

COc1ccc(-c2cc(=O)c3c(OC)c(OC)c(OC)c(OC)c3o2)cc1 = BQL
CC1(C)[C@@H](O[C@@H]2O[C@H](C(=O)O)[C@@H](O)[C@H](O)[C@H]2O)CC[C@]2(C)[C@H]3C(=O)C=C4[C@@H]5C[C@@](C)(C(=O)O)CC[C@]5(C)CC[C@@]4(C)[C@]3(C)CC[C@@H]12 [Glycyrrhetic acid 3-O-glucuronide, Glycyrrhetinic acid 3-O-glucuronide] = 0.244 ± 0.0735 ng/mL
CC(C)=CCC[C@](C)(O[C@@H]1O[C@H](CO[C@@H]2O[C@H](CO)[C@@H](O)[C@H](O)[C@H]2O)[C@@H](O)[C@H](O)[C@H]1O)[C@H]1CC[C@]2(C)[C@@H]1[C@H](O)C[C@@H]1[C@@]3(C)CC[C@H](O[C@@H]4O[C@H](CO)[C@@H](O)[C@H](O)[C@H]4O[C@@H]4O[C@H](CO)[C@@H](O)[C@H](O)[C@H]4O)C(C)(C)[C@@H]3CC[C@]12C [Ginsenoside Rb1] = BQL
CC(C)=CCC[C@](C)(O[C@@H]1O[C@H](CO[C@@H]2O[C@@H](CO)[C@H](O)[C@H]2O)[C@@H](O)[C@H](O)[C@H]1O)[C@H]1CC[C@]2(C)[C@@H]1[C@H](O)C[C@@H]1[C@@]3(C)CC[C@H](O[C@@H]4O[C@H](CO)[C@@H](O)[C@H](O)[C@H]4O[C@@H]4O[C@H](CO)[C@@H](O)[C@H](O)[C@H]4O)C(C)(C)[C@@H]3CC[C@]12C [Ginsenoside Rc] = BQL

====

Assay: Exploratory trial: amount of rikkunshito ingredients in urine
Type: in vivo, human
Conditions: preadministration (between dinner and bedtime); mean ± S.D., n = 4
measure: Amount in urine, Pre

CCCCCCC[C@H](O)CC(=O)CCc1ccc(O)c(OC)c1 [[8]-Gingerol, [8]-Gingerol] = BQL
CC(C)=CCC[C@](C)(O[C@@H]1O[C@H](CO[C@@H]2OC[C@H](O)[C@H](O)[C@H]2O)[C@@H](O)[C@H](O)[C@H]1O)[C@H]1CC[C@]2(C)[C@@H]1[C@H](O)C[C@@H]1[C@@]3(C)CC[C@H](O[C@@H]4O[C@H](CO)[C@@H](O)[C@H](O)[C@H]4O[C@@H]4O[C@H](CO)[C@@H](O)[C@H](O)[C@H]4O)C(C)(C)[C@@H]3CC[C@]12C [Ginsenoside Rb2] = BQL
CNCC(O)c1ccc(O)cc1 (stereo not shown) [Synephrine] = 24.2 ± 28.8 ng
CC(C)=CCC[C@](C)(O[C@@H]1O[C@H](CO)[C@@H](O)[C@H](O)[C@H]1O)[C@H]1CC[C@]2(C)[C@@H]1[C@H](O)C[C@@H]1[C@@]3(C)CC[C@H](O)C(C)(C)[C@@H]3[C@@H](O[C@@H]3O[C@H](CO)[C@@H](O)[C@H](O)[C@H]3O)C[C@]12C [Ginsenoside Rg1] = BQL

====

Test: Randomized crossover quantitative trial: plasma pharmacokinetics of nine ingredients after rikkunshito 2.5, 5.0 or 7.5 g
Conditions: human, in vivo, po, 7.5 g
measure: Cmax

The measured Cmax associated with C/C=C/C#CC#C/C=C/c1ccco1 [Atractylodin] reads 1.57 ng/mL

The origin of these recorded values is paper PMC4506051.
